- Test system: A549-GM130-SQSTM1
- PROCEDURE_DETAILS: phenotypically active (imaging signature differs from DMSO and reproducible) at any of 0.3-9 uM (binary (1 = active, 0 = inactive)); higher = active
- CONDITION_PARAMETERS: treatment time: 24 h
Use one of these outcomes when replying: T (active), F (inactive)

Recorded results for 8 compounds are shown here.
• CC[C@H]1C2C[C@H]3[C@@H]4N(C)c5ccccc5[C@]45C[C@H](C2[C@H]5O)N3[C@@H]1O (stereo partly specified) = F
• COc1ccc(C(=O)Cc2c(CCN(C)C)cc3c(c2OC)OCO3)c(C(=O)O)c1OC = F
• CNC(=O)Oc1ccc2c(c1)[C@]1(C)CCN(C)O[C@@H]1N2C = F
• O=C(Nc1ccncc1)C(=O)c1cn(Cc2ccc(Cl)cc2)c2ccccc12 = T
• C[C@]12C/C(=C\O)C(=O)C[C@@H]1CC[C@@H]1[C@@H]2CC[C@@]2(C)[C@H]1CC[C@]2(C)O = F
• CC[C@@H]1C=CC=CC[C@H](C)[C@@H](O)[C@](C)(O)C(=O)[C@H](C)[C@@H](O)[C@H](C)C(=O)[C@H](C)[C@@H](O)[C@H](C)C=CC(=O)O[C@H]2[C@@H](C)[C@@H](CC1)O[C@@]1(CC[C@@H](C)[C@@H](C[C@H](C)O)O1)[C@@H]2C = T
• O=P1(NCCCl)OCCCN1CCCl (stereo unspecified) [ifosfamide] = F
• C[C@@H](N)[C@@H](O)c1ccccc1 = F

query: Hi, sorry to bother you, what did the test record for O=C1C=C2C=C[C@@H]3C[C@@]2(O1)[C@H]1CCCCN31 ?
result: F

* * *

- Test system: HepG2-GM130-SQSTM1
- PROCEDURE_DETAILS: phenotypically active (imaging signature differs from DMSO and reproducible) at any of 0.3-9 uM (binary (1 = active, 0 = inactive)); higher = active
- CONDITION_PARAMETERS: treatment time: 24 h
Counter-ions that a name gives are not always drawn.
MEASUREMENT_TYPE: phenotypically active
Respond using a number only.

Sample answers from the record:
- CC(C)C[C@H](CN)CC(=O)O [pregabalin]: 0
- CC[C@@H](CO)NC(=O)[C@@H]1C=C2c3cccc4c3c(cn4C)C[C@H]2N(C)C1 [methysergide]: 0
- CCN1C[C@@]2(COC)C3[C@@H](OC)[C@H]4[C@H]1C3([C@@H]1C[C@@]3(O)[C@H](OC(=O)c5ccccc5)[C@@H]1[C@]4(OC(C)=O)[C@@H](O)[C@@H]3OC)[C@H](OC)C[C@H]2O [Aconitine]: 0
- COc1cc([C@@H]2c3cc4c(cc3[C@H](O)[C@H]3COC(=O)[C@H]23)OCO4)cc(OC)c1OC [Podophyllotoxin]: 1
- CC(C)CC(N(C)C)C1(c2ccc(Cl)cc2)CCC1 (stereo not given) [sibutramine]: 0
- CC[C@@H]1C=CC=CC[C@H](C)[C@@H](O)[C@](C)(O)C(=O)[C@H](C)[C@@H](O)[C@H](C)C(=O)[C@H](C)[C@@H](O)[C@H](C)C=CC(=O)O[C@H]2[C@@H](C)[C@@H](CC1)O[C@@]1(CC[C@@H](C)[C@@H](C[C@H](C)O)O1)[C@@H]2C [Oligomycin A]: 1
- N[C@@H]1C[C@H]1c1cc(F)cc(F)c1OCc1ccccc1: 0
- CCCN1CCC[C@@H]2Cc3n[nH]cc3C[C@H]21 [(-)-Quinpirole hydrochloride]: 0

query: Lab note: HepG2-GM130-SQSTM1 assay, enter phenotypically active for Cc1nnc2n1-c1ccc(Cl)cc1C(c1ccccc1)=NC2 [alprazolam] here
result: 0

query: Lab note: HepG2-GM130-SQSTM1 assay, enter phenotypically active for CC(C)[N+](C)(CCC(C(N)=O)(c1ccccc1)c1ccccc1)C(C)C [isopropamide-iodide] here
result: 0

query: Lab note: HepG2-GM130-SQSTM1 assay, enter phenotypically active for C[C@H]1CCCC=C[C@@H]2C[C@H](O)C[C@H]2[C@H](O)C=CC(=O)O1 [brefeldin-a] here
result: 1

query: Lab note: HepG2-GM130-SQSTM1 assay, enter phenotypically active for O=C1CN=C(c2ccccc2)c2cc(Cl)ccc2N1CC(F)(F)F [halazepam] here
result: 0

query: Lab note: HepG2-GM130-SQSTM1 assay, enter phenotypically active for C[C@]12CC[C@H]3[C@@H](CCC4=CC(=O)CC[C@@]43C)[C@@H]1CC[C@@H]2O [testosterone] here
result: 0

query: Lab note: HepG2-GM130-SQSTM1 assay, enter phenotypically active for COc1cc2c(cc1O)C[C@H]1c3c(cc(O)c(OC)c3-2)CCN1C [Boldine] here
result: 0

query: Lab note: HepG2-GM130-SQSTM1 assay, enter phenotypically active for C=C1C/C(=C\C)C(=O)O[C@@H]2CCN3CC=C(COC(=O)[C@]1(C)O)[C@H]23 [Seneciphylline] here
result: 0
